# assayed-target: Cytochrome P450 3A4 (Homo sapiens)
# assay-procedure: qHTS Assay for Activators of Cytochrome P450 3A4 (AID 885); also: nearly all actives have a fitted effect of over 65% in size
# measurement-conditions: recombinant CYP3A4, Luciferin-PPXE luminescence, 60 min; series mostly up to 57.1 µM
Calls of active or inactive are those of the source. Calls follow the shape of the dose curve; as a rule, active = well fitted activation curve with a large enough effect; inconclusive = small, poorly fitted or top-dose-only effect; inactive = no such curve, though single readings can be large or run the other way.
# valid calls are active, inactive; nothing else

CCCn1c(C)nc2c(N3CCOCC3)nc(C)nc21; inactive
COc1ccccc1CN1CC[C@@]2(CCCN(S(C)(=O)=O)C2)C1; inactive
CCCn1c(-c2ccc(F)cc2)nc2c(NCCCCN3CCCC3)nc(C)nc21; inactive
COc1ccccc1CN1CC2(CCN(C(=O)c3cnccn3)CC2)C1; inactive
COc1ccc(NC(=O)N2CC[C@@]3(CCCN(C(=O)c4cnccn4)C3)C2)cc1; inactive
CNc1ccnc(-c2ccccc2C(F)(F)F)n1; inactive
Cc1cccc(CNc2ccnc(-c3cccnc3)n2)c1; inactive
Cc1cccc(CNc2cc(-c3c(C)noc3C)ncn2)c1; inactive

For this compound, state the assay outcome: CN(C)Cc1ccccc1-c1cc(N(C)Cc2ccco2)ncn1
inactive

How about this compound: COc1ccc(NC(=O)N2CC[C@@]3(CCCN(C(=O)c4cccn4C)C3)C2)cc1
inactive

Do the same for CC(=O)NCCNc1ncnc2ccc(-c3cccc(NS(C)(=O)=O)c3)cc12 please
inactive

N#Cc1cccc(-c2cncnc2NCc2cccs2)c1 , same question.
inactive

Now the compound c1cncc(CNc2ncnc3ccc(-c4ccoc4)cc23)c1
inactive

Can you handle CCCn1c(-c2ccc(F)cc2)nc2c(NCCCN(CCO)CCO)nc(C)nc21 next?
inactive

----------
# assayed-target: Calcium and integrin-binding protein 1 (Homo sapiens) (UniProt Q99828)
# Sequence (Q99828 whole entry, looked up): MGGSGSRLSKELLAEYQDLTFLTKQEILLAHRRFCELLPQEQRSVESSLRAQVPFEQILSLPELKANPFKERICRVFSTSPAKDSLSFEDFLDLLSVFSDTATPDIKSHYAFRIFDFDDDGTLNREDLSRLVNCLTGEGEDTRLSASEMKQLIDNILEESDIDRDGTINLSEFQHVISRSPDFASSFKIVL
# assay-procedure: Primary qHTS for Identification of Calcium Integrin Binding Protein 1 (CIB1) Competitor (AID 1508620);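 also: GST tagged CIB1 binding a fluorescein labelled alphaIIb integrin peptide tracer; top concentration of the series differs between compounds; % is scaled to controls: 0 for no effect and ±100 for the full control effect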
# measurement-conditions: CIB1-GST / FITC-alphaIIb peptide fluorescence polarization; series mostly up to 114 µM
Records with an inconclusive call do not appear. Calls of active or inactive are those of the source. The call rests on the fitted dose curve; in most records, active means well fitted inhibition curve with a large enough effect; inconclusive means small, poorly fitted or top-dose-only effect; inactive means flat fitted curve, though single readings scatter.
test-readout: outcome

Would you please look over these solved cases?
O=C1CCc2cc(S(=O)(=O)Nc3ccc(Cl)c(Cl)c3)ccc2N1; inactive
N[C@@H](Cc1ccc(O[S+](=O)([O-])c2cccc3cnccc23)cc1)C(=O)N1CCN(c2ccccc2)CC1; inactive
Cc1ccc(-c2cc(C(=O)O)c3cccc(C)c3n2)cc1C; inactive
O=S(=O)(c1ccc2c(c1)OCCO2)N1CCN(S(=O)(=O)c2ccc(Cl)cc2F)CC1; inactive
O=S(=O)(c1ccccc1)N1CCN(c2nc(-c3ccc(Br)cc3)cs2)CC1; inactive

Would you mind giving outcome for every compound in the list below?
1. CCCn1c(C)nc2c(N(CCN(C)C)Cc3ccccc3)nc(C)nc21
2. Cc1ccc(-c2cc(C(=O)Nc3cccc4ccccc34)c3ccccc3n2)cc1C
3. FC(F)(F)c1ccccc1-c1nc2c(c(NCc3ccc(-c4cccnc4)cc3)n1)CCC2

inactive
inactive
inactive

Can you give me outcome for all of these, one by one?
1. O=S(=O)(NCCCCNS(=O)(=O)c1c(F)cccc1F)c1ccc2c(c1)OCCO2
2. O=C(O)Cc1cc(F)c(S(=O)(=O)N2CCN(S(=O)(=O)c3ccc4c(c3)OCCO4)CC2)cc1F
3. COc1cc(OC)c2c(c1)OC(=O)CC2c1ccc2c(c1)OCO2 (stereo not drawn)
4. N#Cc1cccc(Nc2ncc(-c3cccc4ccccc34)o2)c1
5. Cn1nnnc1Sc1ncnc2scc(-c3ccccc3C#N)c12
6. Cc1nc(NC2CCCCC2)c2nc(-c3ccccc3)n(CCN(C)C)c2n1

["inactive", "inactive", "inactive", "inactive", "inactive", "inactive"]

Please state outcome for every compound in the list that follows.
1. O=C(Nc1ccc(S(=O)(=O)Nc2nccs2)cc1)c1ccncc1
2. O=C(Cc1ccc(Cl)c(Cl)c1)Nc1ccc([S+](=O)([O-])Nc2ccc([N+](=O)[O-])cc2)cc1

inactive
inactive

Report outcome for each item below.
1. Fc1cccc(Nc2nc(-c3ccncc3)nc3ccccc23)c1
2. COc1cc(-c2ccc3ncnc(NCc4nc(C)cs4)c3c2)cc(OC)c1OC
3. COc1ccc(C(=O)N(Cc2ccccc2)Cc2ccccc2)c(O)c1
4. CC(C)(C)OC(=O)N1CCC(c2ccc(NCc3ccc(-c4ccc(C#N)cc4)o3)cc2)CC1

["inactive", "inactive", "inactive", "inactive"]

// input: 6 compounds below; output: outcome for each
1. O=C(NCCc1nc2ccccc2n1CCOc1cccc(Br)c1)C1CCCCC1
2. NC(=O)C1CCN(c2nccc(-c3ccc4c(c3)OCCCO4)n2)CC1
3. O=C(Cc1ccccc1)Nc1sc2c(c1C(=O)Nc1ccc(Cl)cc1)CCOC2
4. CCCn1c(C)nc2c(NCC3CCCN3CC)nc(C)nc21 (stereo not drawn)
5. O=C(Nc1nnc(-c2ccncc2)s1)Nc1cc(C(F)(F)F)ccc1F
6. O=C(/C=C/c1cccs1)Nc1cccc([S+](=O)([O-])Nc2ccccc2F)c1

inactive
inactive
inactive
inactive
inactive
inactive

Please go through the list and note outcome for each compound.
1. Cc1nc(NC2CCCCC2)c2nc(-c3ccccc3)n(C(C)CN(C)C)c2n1 (stereo not drawn)
2. COc1ccccc1C1=Nn2c(nnc2-c2ccccc2C)SC1
3. Cc1ccnc(NC(=S)N[C@H]2CCN(c3cccc(C(F)(F)F)c3)C2)c1
4. Cn1nnnc1Sc1ncnc2scc(-c3cccc(Cl)c3)c12

1. inactive
2. inactive
3. inactive
4. inactive

Please report outcome for every entry that follows.
1. O=C(O)c1cccc(-c2cccc(-c3nn4c(=O)cc(N5CCNCC5)nc4s3)c2)c1
2. Cc1nc(N2CCOCC2)c2nc(-c3ccccc3)n(CC(C)(C)CN(C)C)c2n1
3. Cc1ccc(N2C(=O)c3ccccc3C2=O)c(C)c1
4. O=S(=O)(Nc1cccc2cccnc12)c1ccccc1O

inactive
inactive
inactive
inactive

# per-item lookup of outcome; items listed below
1. COc1ccc(C2=Nn3c(nnc3-c3ccccc3O)SC2)c(OC)c1
2. Cc1cc(C)nc(NC(=S)N2CCN(c3cccc(Cl)c3Cl)CC2)c1

1: inactive; 2: inactive

----------
# System: GB4
# assay-procedure: qHTS profiling for inhibitors of Plasmodium falciparum proliferation (AID 504749); also: nearly all actives have a fitted effect of over 60% in size
# measurement-conditions: P. falciparum in erythrocytes, SYBR Green DNA, 72 h; series mostly up to 28.7 µM
Records with an inconclusive call do not appear. Activity calls are given as the source filed them. The call rests on the fitted dose curve; in most records, active means well fitted inhibition curve with a large enough effect; inconclusive means small, poorly fitted or top-dose-only effect; inactive means flat fitted curve, though single readings scatter.
Give your call using only these classes: 1 for active, 0 for inactive

Sample answers from the record:
C[C@@]12C(=O)OC(=O)[C@]1(C)[C@H]1CC[C@@H]2O1; 1
C[C@@H]1[C@H](O)[C@@H](C)/C=C/C=C/C=C/C=C/C=C/C=C/C=C/[C@H](O[C@@H]2O[C@H](C)[C@@H](O)[C@H](N)[C@@H]2O)C[C@@H]2O[C@](O)(C[C@@H](O)C[C@@H](O)[C@H](O)CC[C@@H](O)C[C@@H](O)CC(=O)O[C@H]1C)C[C@H](O)[C@H]2C(=O)O; 0
C=C1CCC2[C@](C)(CO)C(O)CC[C@]2(C)C1C/C=C1/C(=O)OCC1O (stereo partly specified); 0
CN1C(=O)CCC1c1cccnc1 (stereo unspecified); 0
C=C1/C(=C\C=C2/CCC[C@]3(C)[C@@H]([C@H](C)CCCC(C)(C)O)CC[C@@H]23)C[C@@H](O)C[C@@H]1O; 0

// param item: Oc1ccc(/C=C\c2cc(O)cc(O)c2)cc1 ; yields the recorded call
0

----------
# assay-procedure: qHTS Assay for Lipid Storage Modulators (AID 1519)
# measurement-conditions: Drosophila S3 cells, BODIPY lipid droplet/cell ratio, laser cytometry; measured here: cell count channel max response; cells loaded with oleic acid
Records with an inconclusive call do not appear.
test-readout: max response (%)
Answers are plain numbers, in %.

Cn1cccc1C(=O)N1CCC[C@@]2(CCN(c3ccccc3)C2)C1; 15.8
O=C(Nc1ccccc1)N1CC2(CCN(C(=O)c3ccncc3)CC2)C1; -8.48
NCC1OC(O[C@@H]2[C@H](O)[C@@H](OC3C(O)C(N)CC(N)C3OC3OC(CO)C(O)C(O)C3N)O[C@@H]2CO)C(N)C(O)C1O (some centres undefined); -5.44
O=c1c(-c2cccs2)nc2cnc(N3CCOCC3)nc2n1-c1ccccc1; 13.7
COc1ncc2nc(C)c(=O)n(C3CC3)c2n1; 28.7

Dear reader, for each entry below, please note its max response.
1. COc1ncc2nc(-c3cccs3)c(=O)n(-c3ccccc3)c2n1
2. Cc1ccccc1-c1nccc(NCCN2CCOCC2)n1
3. c1csc(CNc2cc(-c3ccoc3)ncn2)c1
4. CC(C)NC(=O)N1CC2(CCN(S(=O)(=O)c3ccccc3)CC2)C1
5. O=c1cnc2cncnc2n1Cc1ccccc1Cl

-0.0529
17.5
26.5
3.88
-0.667

----------
# assayed-target: Glucocorticoid receptor (Homo sapiens) (UniProt P04150)
# Sequence (P04150 whole entry, looked up): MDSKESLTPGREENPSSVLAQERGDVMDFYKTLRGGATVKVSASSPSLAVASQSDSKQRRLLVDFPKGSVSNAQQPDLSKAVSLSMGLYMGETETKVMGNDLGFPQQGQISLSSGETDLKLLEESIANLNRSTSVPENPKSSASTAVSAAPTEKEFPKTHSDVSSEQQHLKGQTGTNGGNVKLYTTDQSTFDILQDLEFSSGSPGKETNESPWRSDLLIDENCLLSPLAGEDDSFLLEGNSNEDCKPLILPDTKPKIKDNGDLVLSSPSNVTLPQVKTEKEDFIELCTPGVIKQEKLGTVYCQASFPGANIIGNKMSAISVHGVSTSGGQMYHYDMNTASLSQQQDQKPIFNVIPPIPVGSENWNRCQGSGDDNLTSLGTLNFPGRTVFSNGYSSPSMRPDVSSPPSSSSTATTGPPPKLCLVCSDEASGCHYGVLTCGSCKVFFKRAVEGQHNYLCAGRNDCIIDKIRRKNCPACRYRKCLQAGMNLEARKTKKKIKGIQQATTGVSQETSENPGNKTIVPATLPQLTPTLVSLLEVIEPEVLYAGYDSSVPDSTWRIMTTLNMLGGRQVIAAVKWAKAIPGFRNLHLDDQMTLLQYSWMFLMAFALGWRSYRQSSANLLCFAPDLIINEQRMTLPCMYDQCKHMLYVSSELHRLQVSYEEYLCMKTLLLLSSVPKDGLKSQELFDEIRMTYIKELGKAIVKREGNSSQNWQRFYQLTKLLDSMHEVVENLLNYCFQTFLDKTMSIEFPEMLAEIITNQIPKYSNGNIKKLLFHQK
# assay-procedure: GR-GFP Redistribution (AID 450); also: potency is read from the fitted curve at half-maximal effect
# measurement-conditions: U2OS GR-GFP nuclear translocation, laser cytometry, 2 h
Active and inactive are the calls of the source.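 The calls were made as follows: active = compounds whose dose series gives a full or clear partial fitted curve of increased nuclear translocation; inconclusive = weak partial curve or effect only at the top dose; inactive = no dose-dependent translocation response.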
Assignment: determine reported Potency for the given molecules.

O=c1c(-c2cccs2)nc2cncnc2n1Cc1ccccc1; > 9.22 µM (inactive)

For each of the molecules below, note its Potency.
1. CN(C)C(=O)c1ccc(-c2nc(NC3CCNCC3)c3ccccc3n2)cc1
2. CC(=O)NCCNc1ccnc(-c2ccccc2C(F)(F)F)n1
3. O=c1c(-c2cc(F)cc(F)c2)nc2cncnc2n1Cc1ccccc1

1: > 46 µM (inactive); 2: > 46 µM (inactive); 3: > 9.22 µM (inactive)

Parameters: items (list). Returns: Potency for each item.
1. CN(C)Cc1ccccc1-c1nc(N(C)C)c2ccccc2n1
2. Cc1noc(C)c1-c1cncnc1NCCN1CCOCC1
3. c1ccc(CNc2ncnc3ccc(-c4cccnc4)cc23)cc1
4. O=c1c(-c2cccs2)nc2cnc(N3CCOCC3)nc2n1-c1ccccc1
5. CS(=O)(=O)Nc1cccc(-c2ccc3ncnc(NC4CCNCC4)c3c2)c1

> 46 µM (inactive)
> 46 µM (inactive)
> 46 µM (inactive)
> 9.22 µM (inactive)
> 46 µM (inactive)
